Where a name gives a salt, the structure may show the parent alone.
MEASUREMENT NAME: melting point

{"MOLECULE": "COc1nc2ccc(Br)cc2cc1C(c1ccc(Cl)cc1)C1(O)CCNC(Cc2ccc(F)cc2)C1 (stereo not drawn) [Compound 337]", "REPORTED MEASUREMENT": "186 °C"}

Qu. If you can, please state the reported melting point value of COc1nc2ccc(Cl)cc2cc1C(c1ccc(Cl)cc1)C1(O)CCNC(Cc2ccc(F)cc2)C1 (stereo not drawn) (as salt: fumarate) [Compound 345] .
Ans. 152 to 154 °C

Qu. O=c1[nH]c2ccc(Br)cc2cc1C(c1cccc(Cl)c1)C1(O)CCNC(Cc2ccccc2)C1 (stereo not drawn) (as salt: hydrochloride) [Compound 85] , same question.
Ans. > 260 °C

Qu. COc1nc2ccc(Br)cc2cc1C(c1ccccc1)C1(O)CCNC(c2ccc(F)cc2C)C1 (stereo not drawn) [Compound 248] , same question.
Ans. 134 °C

###

Counter-ions that a name gives are not always drawn.
# melting point annotations
Field format: number, assumed °C, no unit text.

// solved cases for melting point follow
{"MOLECULE": "COc1nc2ccc(SC)cc2cc1C(c1ccc(Cl)cc1)C1(O)CCNC(Cc2ccc(F)c(F)c2)C1 (stereo not shown) [Compound 191]", "melting point / °C": 162}
{"MOLECULE": "COc1nc2ccc(S(C)(=O)=O)cc2cc1C(c1ccccc1)C1(O)CCNC(c2ccc(F)cc2C)C1 (stereo not shown) [Compound 252]", "melting point / °C": 152}

Qu. If you can, please state the reported melting point value of COc1nc2ccc(-c3cccnc3)cc2cc1C(c1cccc(Cl)c1)C1(O)CCNC(Cc2ccccc2)C1 (stereo not shown) [Compound 36] .
Ans. 120

Qu. COc1nc2ccc(S(C)(=O)=O)cc2cc1C(c1ccc(Cl)cc1)C1(O)CCNC(c2ccc(F)cc2C)C1 (stereo not shown) [Compound 199] , same question.
Ans. 192

Qu. COc1nc2ccc(F)cc2cc1C(c1ccc(SC)cc1)C1(O)CCNC(c2ccc(F)cc2C)C1 (stereo not shown) , same question.
Ans. 206

Qu. COc1nc2ccc(F)cc2cc1C(c1ccc(Cl)cc1)C1(O)CCNC(c2ccc(F)cc2C)C1 (stereo not shown) (as salt: fumarate) [Compound 331] , same question.
Ans. 166

###

Structures can show the parent of a compound that is named as a salt.
MEASUREMENT NAME: melting point

// solved cases for melting point follow
{"COMPOUND": "COc1nc2ccc(SC)cc2cc1C(c1ccc(Cl)cc1)C1(O)CCNC(Cc2ccccc2)C1 (stereo not shown) (as salt: fumarate) [Compound 93]", "REPORTED MEASUREMENT": "> 250 °C"}
{"COMPOUND": "Cc1cc(F)ccc1C1CC(O)(C(c2ccccc2)c2cc3cc(S(C)(=O)=O)ccc3[nH]c2=O)CCN1 (stereo not shown) (as salt: hydrochloride) [Compound 237]", "REPORTED MEASUREMENT": "> 250 °C"}
{"COMPOUND": "C=CCC1CNCCC1(O)C(c1ccc(Cl)cc1)c1cc2cc(Br)ccc2nc1OC (stereo not shown) [Compound 393]", "REPORTED MEASUREMENT": "159 to 161 °C"}

// next item, melting point requested
Qu. If you can, please state the reported melting point value of CSc1ccc2[nH]c(=O)c(C(c3ccccc3)C3(O)CCNC(c4ccc(F)cc4C)C3)cc2c1 (stereo not shown) [Compound 180] .
Ans. 186 °C
